# System: Hsp90 in HEPG2 lysate
# condition: HepG2 lysate, 111.111 nM compound, raw
Documented FP signal across a set of compounds

compound	FP signal
CC1CC2OC2C=CC=CC(=NOCc2ccccc2)Cc2c(Cl)c(O)cc(O)c2C(=O)O1 (mixture of isomers)	177
CC1CC2OC2C=CC=CC(=NOCc2cccc(F)c2)Cc2c(Cl)c(O)cc(O)c2C(=O)O1 (mixture of isomers)	188
C[C@@H]1C[C@@H]2O[C@@H]2/C=C\C=C\C(=NOCc2ccccc2Cl)Cc2c(Cl)c(O)cc(O)c2C(=O)O1	200
COc1ccc(CON=C2C=CC=CC3OC3CC(C)OC(=O)c3c(O)cc(O)cc3C2)cc1 (stereo not shown)	208
COc1ccc(CON=C2C=CC=CC3OC3CC(C)OC(=O)c3c(O)cc(O)c(Cl)c3C2)cc1 (mixture of isomers)	209
Cc1ccc(CON=C2C=CC=CC3OC3CC(C)OC(=O)c3c(O)cc(O)c(Cl)c3C2)cc1 (mixture of isomers)	208
CCON=C1/C=C/C=C\[C@H]2O[C@H]2C[C@@H](C)OC(=O)c2c(O)cc(O)c(Cl)c2C1	44
